// t½ lookup, one value per entry
Biological target: T1, human PDGF-BB (human)
T1 construct: The ELISA text names human PDGF-BB of Cell Signaling, Cat. No 8921BF
T1 chain: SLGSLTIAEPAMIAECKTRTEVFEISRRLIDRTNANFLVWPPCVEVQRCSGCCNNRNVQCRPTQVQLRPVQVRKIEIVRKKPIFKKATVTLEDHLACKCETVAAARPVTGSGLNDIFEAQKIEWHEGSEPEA
Assay: SPR, Fab fragment; assay format for PDGF not described
parameter: t½

>  <binder>
bispecific anti-VEGF/anti-PDGF-B Fab fragment 28.01 (Fab, V domains shown) VH: DLQLVESGGGLVKPGGSLRLSCAADGWWFGYTDMSWVRQAPGKGLEWVGSISYKGGSTYYNTKFIGRFTISRDDDTNTLYLQMNSLRAEDTAVYYCARDDGYFDTWGQGTLVTVSS VL: AIHMYQEPSSLSASVGDRVTITCHGSYWLSNYLAWYQQKPGKAPKLLIYDGKEREHGVPSRFSGSGSHEDYTLTISSLQPEDFATYYCQQYRYHPYTFGHGTKVEIKR

>  <testResult>
26 min

$$$$
>  <binder>
bispecific anti-VEGF/anti-PDGF-B Fab fragment RO7113083 (Fab, V domains shown, also called R07113083) VH: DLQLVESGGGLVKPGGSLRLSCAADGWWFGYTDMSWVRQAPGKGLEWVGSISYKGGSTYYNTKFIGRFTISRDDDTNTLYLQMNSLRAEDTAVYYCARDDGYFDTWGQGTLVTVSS VL: AIYMHQEPSSLSASVGDRVTITCHGSYWLSNYLAWYQQKPGKAPKLLIYDGKEREHGVPSRFSGSGSHEDYTLTISSLQPEDFATYYCQQYRYHPYTFGHGTKVEIKR

>  <testResult>
25 min

$$$$
>  <binder>
bispecific anti-VEGF/anti-PDGF-B Fab fragment 28.02 (Fab, V domains shown) VH: DLQLVESGGGLVKPGGSLRLSCAADGWWFGYTDMSWVRQAPGKGLEWVGSISYKGGHKYLNTKFIGRFTISRDDDTNTLYLQMNSLRAEDTAVYYCARDDGYFDTWGQGTLVTVSS VL: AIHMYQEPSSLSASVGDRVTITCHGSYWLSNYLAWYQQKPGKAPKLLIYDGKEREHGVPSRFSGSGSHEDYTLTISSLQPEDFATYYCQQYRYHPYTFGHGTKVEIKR

>  <testResult>
24 min

$$$$
>  <binder>
bispecific anti-VEGF/anti-PDGF-B Fab fragment P1AA9124 (Fab, V domains shown) VH: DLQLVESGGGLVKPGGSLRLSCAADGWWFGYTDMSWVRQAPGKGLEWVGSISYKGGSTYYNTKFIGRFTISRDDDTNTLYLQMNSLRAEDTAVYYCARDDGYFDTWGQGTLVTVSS VL: AIQMTQSPSSLSASVGDRVTITCHGSYWLSNYLAWYQQKPGKAPKLLIYDGKEREHGVPSRFSGSGSHEDYTLTISSLQPEDFATYYCQQYRYHPYTFGQGTKLEIKR

>  <testResult>
24 min

$$$$
>  <binder>
bispecific anti-VEGF/anti-PDGF-B Fab fragment 28.07 (Fab, V domains shown) VH: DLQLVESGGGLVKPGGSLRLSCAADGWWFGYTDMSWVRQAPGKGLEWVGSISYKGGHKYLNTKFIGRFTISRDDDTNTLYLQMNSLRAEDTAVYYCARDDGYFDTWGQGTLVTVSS VL: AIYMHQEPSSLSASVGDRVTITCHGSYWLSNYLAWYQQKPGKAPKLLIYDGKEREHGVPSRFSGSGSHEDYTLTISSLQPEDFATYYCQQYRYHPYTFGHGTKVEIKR

>  <testResult>
24 min

$$$$

Just for reference, patent US20230105324A1 is where these values come from.
